Measured Kd values are reported for all entries that follow.
biological target: (NVDP)3(NANP)2 (Plasmodium falciparum); assay: SPR, antibody on chip
Quick note: give the figure in µM, leave out the unit.

{"columns": ["binder", "units", "Kd"],
 "data": [
  ["AB-007062 (antibody, V domains shown) VH: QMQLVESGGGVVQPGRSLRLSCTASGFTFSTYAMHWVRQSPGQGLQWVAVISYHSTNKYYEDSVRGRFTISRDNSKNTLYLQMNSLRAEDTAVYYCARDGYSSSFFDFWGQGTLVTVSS VL: DIQMTQSPSTLSASVGDRVAITCRASQSISSWLAWYQQQPGKAPKLLMSGASVLESGVPSRFSGSGSGTEFTLTISSLQPDDFATYYCQHYNSYFVTFGQGTKVEIK", "µM", 6.25]
]}

Shifting focus to the binder that follows.
query: State the recorded Kd for this entry: AB-007044 (antibody, V domains shown) VH: QMQLVESGGGVVQPGRSLRLSCTASGFTFSTYAMHWVRQSPGQGLQWVAVISYHSTNKYYEESVRGRFTISRDNSKNTLYLQMNSLRAEDTAVYYCARDGYSSSFFDFWGQGTLVTVSS VL: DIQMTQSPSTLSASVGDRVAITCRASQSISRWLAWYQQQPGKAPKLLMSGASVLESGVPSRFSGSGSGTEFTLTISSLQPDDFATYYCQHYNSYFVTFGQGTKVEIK
result: 2.24
